- System: Escherichia coli (ATCC25922) or Staphylococcus aureus (ATCC25923)
- assay summary: Antibacterial MIC, microdilution method in Mueller-Hinton medium
- Type: cell-based
- assay context: Escherichia coli, 18 h, read-out: Potency (MIC)
- Protocol: The antibacterial activity of the Formula I compounds was evaluated against standard bacterial strains by determining the minimal inhibitory concentration (MIC) to block growth. Each drug was assayed by the microdilution method in Mueller-Hinton medium, as recommended by the National Committee for Clinical Laboratory Standards. […] The MIC was determined as the lowest concentration of each compound that prevented bacterial growth after 18 hours of incubation at 35° C. […]
# MIC annotations
reported metric: MIC

>>> recorded_measurement("N[C@@H]1C[C@H](N)CN(c2nc(Nc3ccc(NC(=O)c4ccc(F)cc4O)c(O)c3)nc(N3C[C@H](N)C[C@H](N)C3)n2)C1")
"< 16 µg/mL"
>>> recorded_measurement("N[C@@H]1C[C@H](N)CN(c2nc(Nc3ccc(C(=O)CC(=O)Nc4cccc(SC(F)(F)F)c4)cc3)nc(N3C[C@H](N)C[C@H](N)C3)n2)C1")
"< 16 µg/mL"
>>> recorded_measurement("Cc1ccc(C(=O)Nc2ccc(Nc3nc(N4C[C@H](N)C[C@H](N)C4)nc(N4C[C@@H](N)C[C@H]4CN)n3)cc2O)cc1")
"< 64 µg/mL"
>>> recorded_measurement("COc1cccc(OC)c1CNc1nc(N2C[C@H](N)C[C@H](N)C2)nc(N2C[C@H](N)C[C@H](N)C2)n1")
"> 64 µg/mL"
>>> recorded_measurement("COc1nc(Nc2ccc(C(C)=O)cc2)nc(N2C[C@H](N)C[C@H](N)C2)n1")
"> 64 µg/mL"
>>> recorded_measurement("CCN(CC)c1ccc(Nc2nc(N3C[C@H](N)C[C@H](N)C3)nc(N3C[C@H](N)C[C@H](N)C3)n2)cc1")
"> 64 µg/mL"
>>> recorded_measurement("Cc1cc(Br)ccc1Nc1nc(N2C[C@H](N)C[C@H](N)C2)nc(N2C[C@H](N)C[C@H](N)C2)n1")
"> 64 µg/mL"
>>> recorded_measurement("COc1nc(Nc2ccc(NC(=O)c3ccc4ccccc4c3O)cc2)nc(N2C[C@H](N)C[C@H](N)C2)n1")
"< 16 µg/mL"
>>> recorded_measurement("N[C@@H]1C[C@H](N)CN(c2nc(Nc3ccc(S(=O)(=O)Nc4ccc5cn[nH]c5c4)cc3)nc(N3CCC[C@@H](O)C3)n2)C1")
"> 64 µg/mL"
>>> recorded_measurement("N[C@@H]1C[C@H](N)CN(c2nc(NCCCn3ccnc3)nc(N3C[C@H](N)C[C@H](N)C3)n2)C1")
"> 64 µg/mL"
>>> recorded_measurement("NC[C@@H]1C[C@H](N)CN1c1nc(Nc2ccc(NC(=O)c3ccc(Cl)cc3)c(O)c2)nc(N2C[C@H](N)C[C@H](N)C2)n1")
"< 16 µg/mL"
>>> recorded_measurement("COc1cc(NC(=O)CC(=O)c2ccc(Nc3nc(N4C[C@H](N)C[C@H](N)C4)nc(N4C[C@H](N)C[C@H](N)C4)n3)cc2)c(OC)cc1Cl")
"< 16 µg/mL"
>>> recorded_measurement("NC[C@@H]1C[C@H](CN)CN(c2nc(Nc3ccc(S(=O)(=O)Nc4ccc5cn[nH]c5c4)cc3)nc(N3C[C@H](N)C[C@H](N)C3)n2)C1")
"> 64 µg/mL"
>>> recorded_measurement("COc1nc(Nc2ccc(S(=O)(=O)Nc3ccc4cn[nH]c4c3)cc2)nc(N2C[C@H](N)C[C@H](N)C2)n1")
"> 64 µg/mL"
>>> recorded_measurement("COc1ccc(Nc2nc(N3C[C@H](N)C[C@H](N)C3)nc(N3C[C@H](N)C[C@H](N)C3)n2)c([N+](=O)[O-])c1")
"> 64 µg/mL"

* * *

- Tested on: Escherichia coli (ATCC25922) or Staphylococcus aureus (ATCC25923)
- assay summary: Antibacterial MIC, microdilution method in Mueller-Hinton medium
- Format: cell-based
- assay context: Escherichia coli, 18 h, read-out: Potency (MIC)
reported metric: MIC

>>> recorded_measurement("N[C@@H]1C[C@H](N)CN(c2nc(Nc3ccc(C(=O)CC(=O)Nc4ccccc4Cl)cc3)nc(N3C[C@@H](N)C[C@H]3CO)n2)C1")
"< 64 µg/mL"
>>> recorded_measurement("N[C@@H]1C[C@H](N)CN(c2nc(Nc3ccc(S(N)(=O)=O)cc3)nc(N3C[C@H](N)C[C@H](N)C3)n2)C1")
"> 64 µg/mL"
>>> recorded_measurement("N[C@@H]1C[C@H](N)CN(c2nc(Nc3ccc(-c4ccccc4)cc3)nc(N3C[C@H](N)C[C@H](N)C3)n2)C1")
"< 64 µg/mL"
>>> recorded_measurement("N[C@@H]1C[C@H](N)CN(c2nc(Nc3ccc(C(=O)Nc4ccc(Cl)cc4)c(O)c3)nc(N3C[C@H](N)C[C@H](N)C3)n2)C1")
"< 64 µg/mL"
>>> recorded_measurement("COc1ccc(C(=O)Nc2ccc(Nc3nc(N4C[C@H](N)C[C@H](N)C4)nc(N4C[C@H](N)C[C@H](N)C4)n3)cc2O)c(O)c1OC")
"< 64 µg/mL"
>>> recorded_measurement("N[C@@H]1C[C@H](N)CN(c2nc(Nc3ccc(NS(=O)(=O)c4cc(Cl)cc(Cl)c4)c(O)c3)nc(N3C[C@H](N)C[C@H](N)C3)n2)C1")
"< 64 µg/mL"
>>> recorded_measurement("NC[C@@H]1C[C@H](N)CN1c1nc(Nc2ccc(NC(=O)c3ccc4ccccc4c3O)cc2)nc(N2C[C@H](N)C[C@H](N)C2)n1")
"< 16 µg/mL"
>>> recorded_measurement("N[C@@H]1C[C@H](N)CN(c2nc(NNc3cc(Cl)cc(Cl)c3)nc(N3C[C@H](N)C[C@H](N)C3)n2)C1")
"< 64 µg/mL"
>>> recorded_measurement("COc1nc(Nc2ccc(C(=O)CC(=O)Nc3ccc4c(c3)OC(F)(F)O4)cc2)nc(N2C[C@H](N)C[C@H](N)C2)n1")
"< 16 µg/mL"
>>> recorded_measurement("N[C@@H]1C[C@H](N)CN(c2nc(Nc3ccc(NC(=O)c4ccc(Cl)cc4O)c(C(=O)Nc4ccccc4)c3)nc(N3C[C@H](N)C[C@H](N)C3)n2)C1")
"< 16 µg/mL"
>>> recorded_measurement("Cc1ccc(C(=O)Nc2ccc(Nc3nc(N4C[C@H](N)C[C@H](N)C4)nc(N4C[C@H](N)C[C@H](N)C4)n3)cc2C)c(O)c1")
"< 64 µg/mL"
>>> recorded_measurement("N[C@@H]1C[C@H](N)CN(c2nc(Nc3ccc(S(=O)(=O)c4ccc([N+](=O)[O-])cc4)cc3)nc(N3C[C@H](N)C[C@H](N)C3)n2)C1")
"< 64 µg/mL"
>>> recorded_measurement("N[C@@H]1C[C@H](N)CN(c2nc(Nc3ccc(NC(=O)c4ccc(Cl)cc4O)c(Cl)c3)nc(N3C[C@H](N)C[C@H](N)C3)n2)C1")
"< 16 µg/mL"
>>> recorded_measurement("N[C@@H]1C[C@H](N)CN(c2nc(NNc3cccc(Cl)c3)nc(N3C[C@H](N)C[C@H](N)C3)n2)C1")
"< 64 µg/mL"

* * *

# MIC annotations
- System: Escherichia coli (ATCC25922) or Staphylococcus aureus (ATCC25923)
- assay summary: Antibacterial MIC, microdilution method in Mueller-Hinton medium
- Format: cell-based
- assay context: Escherichia coli, 18 h, MIC in E. coli or S. aureus; two-fold serial dilutions 64 to 0.5 μg/ml in duplicate; 18 hours of incubation at 35° C.; read-out: Potency (MIC)
reported metric: MIC

>>> recorded_measurement("Cl.N[C@@H]1C[C@H](N)CN(c2nc(Nc3ccc4c(c3)CCC4)nc(N3C[C@H](N)C[C@H](N)C3)n2)C1")
"> 64 µg/mL"
>>> recorded_measurement("N[C@@H]1C[C@H](N)CN(c2nc(NC3CCNC3)nc(N3C[C@H](N)C[C@H](N)C3)n2)C1 (stereo partly shown)")
"> 64 µg/mL"
>>> recorded_measurement("CC1=NN(c2ccc(Nc3nc(N4C[C@H](N)C[C@H](N)C4)nc(N4C[C@H](N)C[C@H](N)C4)n3)cc2)C(=O)C1CCO (stereo partly shown)")
"> 64 µg/mL"
>>> recorded_measurement("Cc1cc(=O)oc2cc(Nc3nc(N4C[C@H](N)C[C@H](N)C4)nc(N4CCC[C@@H](O)C4)n3)ccc12")
"< 64 µg/mL"
>>> recorded_measurement("Cc1ccc(C(=O)Nc2ccc(Nc3nc(N4C[C@H](N)C[C@H](N)C4)nc(N4C[C@H](N)C[C@H](N)C4)n3)cc2O)c(O)c1")
"< 16 µg/mL"
>>> recorded_measurement("Cc1cc(=O)oc2cc(Nc3nc(N4C[C@H](N)C[C@H](N)C4)nc(N4CC[C@H](O)[C@@H]4CN)n3)ccc12")
"> 64 µg/mL"
>>> recorded_measurement("Cc1cc(=O)oc2cc(Nc3nc(N4CCCCC4)nc(N4CCCC4)n3)ccc12.Cl")
"> 64 µg/mL"
